# assay_method_text: clinical
# Type: in vivo
# experimental_parameters: both sexes, human, in vivo, po, 80 mg
measured_property: Cmax (ng/mL)
One number for each entry, in ng/mL.

Fill in: Cmax of "CCC(C)(C)C(=O)O[C@H]1C[C@@H](C)C=C2C=C[C@H](C)[C@H](CC[C@@H](O)C[C@@H](O)CC(=O)O)[C@H]21" is ___
4.33

---

# assay_method_text: clinical
# Assay type: in vivo
# experimental_parameters: both sexes, human, in vivo, po, 80 mg
measured_property: AUC(0-inf) (ng·h/mL)
Answers are plain numbers, in ng·h/mL.

Looking for the measured AUC(0-inf) of "CCC(C)(C)C(=O)O[C@H]1C[C@@H](C)C=C2C=C[C@H](C)[C@H](CC[C@@H](O)C[C@@H](O)CC(=O)O)[C@H]21" , can you help?
46.8

Values compiled from patent US20100267636A1.
